assay: Intrinsic clearance (CLint) assay, human liver microsomes; assay type: in vitro ADME; conditions: predicted metabolic clearance
Non-standard residues stand in square brackets, D forms with d. Residues, ends and D or L forms follow the SMILES beside them. dPhe(4-Cl) = N[C@H](Cc1ccc(Cl)cc1)C(=O)O; NMeN = CN[C@@H](CC(N)=O)C(=O)O; NMeL = CN[C@@H](CC(C)C)C(=O)O; NMeV = CN[C@H](C(=O)O)C(C)C; dOrn = NCCC[C@@H](N)C(=O)O
Measured property: CLpred Human (mL/min/kg)
Numbers only, in mL/min/kg.

CC(C)C[C@@H]1NC(=O)[C@H](C)NC(=O)[C@@H](CCCN)NC(=O)[C@H](CC(N)=O)NC(=O)[C@H](C(C)C)NC(=O)[C@@H](CC(C)C)NC1=O [Compound 3c] (cyclo(AL[dL]VN[dOrn])) = 6.31
CC[C@H](C)[C@@H]1NC(=O)[C@@H](CC(C)C)NC(=O)[C@H](CC(C)C)NC(=O)[C@H](Cc2c[nH]c3ccccc23)NC(=O)[C@@H](CCCN)NC(=O)[C@H](CO)NC1=O [Compound 10c] (cyclo(IS[dOrn]WL[dL])) = 16.70
CC(C)C[C@@H]1NC(=O)[C@H](Cc2c[nH]c3ccccc23)NC(=O)[C@@H](CCCN)NC(=O)[C@H](CC(N)=O)NC(=O)[C@H](C)NC(=O)[C@@H](CC(C)C)NC1=O [Compound 5c] (cyclo(AN[dOrn]WL[dL])) = 6.31
CC[C@H](C)[C@@H]1NC(=O)[C@@H](Cc2ccc(Cl)cc2)NC(=O)[C@H](CC(C)C)NC(=O)[C@H](Cc2c[nH]c3ccccc23)NC(=O)[C@@H](CCCN)NC(=O)[C@@H](CCCN)NC1=O [Compound 18c] (cyclo(I[dOrn][dOrn]WL[dPhe(4-Cl)])) = 10.65
CC(C)C[C@@H]1NC(=O)[C@H](Cc2c[nH]c3ccccc23)NC(=O)[C@@H](CCCN)NC(=O)[C@H](CC(N)=O)NC(=O)[C@H](C(C)C)NC(=O)[C@@H](C)NC1=O [Compound 6c] (cyclo(L[dA]VN[dOrn]W)) = 8.99

Answer for every listed entry: what is its CLpred Human? The entries follow.
1. CC[C@H](C)[C@@H]1NC(=O)[C@@H](CC(C)C)NC(=O)[C@H](CC(C)C)NC(=O)[C@H](Cc2c[nH]c3ccccc23)NC(=O)[C@@H](CCCN)NC(=O)[C@H](CC(N)=O)NC1=O [Compound 7c] (cyclo(IN[dOrn]WL[dL]))
2. CC(C)C[C@H]1NC(=O)[C@H](CC(C)C)N(C)C(=O)[C@H](Cc2c[nH]c3ccccc23)NC(=O)[C@@H](CCCN)NC(=O)[C@H](CC(N)=O)NC(=O)[C@H](C(C)C)N(C)C1=O [Compound 24c] (cyclo(N[dOrn]W[NMeL][dL][NMeV]))
3. CC(C)C[C@@H]1NC(=O)[C@H](Cc2c[nH]c3ccccc23)NC(=O)[C@@H](CCCN)NC(=O)[C@@H](CCCN)NC(=O)[C@H](C(C)C)NC(=O)[C@@H](CC(C)C)NC1=O [Compound 9c] (cyclo(L[dL]V[dOrn][dOrn]W))
4. CC(C)C[C@@H]1NC(=O)[C@H](Cc2c[nH]c3ccccc23)NC(=O)[C@@H](CCCN)NC(=O)[C@H](CC(N)=O)NC(=O)[C@H](C(C)C)NC(=O)[C@@H](Cc2ccc(Cl)cc2)NC1=O [Compound 16c] (cyclo(L[dPhe(4-Cl)]VN[dOrn]W))
5. CC[C@H](C)[C@@H]1NC(=O)[C@@H](CC(C)C)NC(=O)[C@H](CC(C)C)NC(=O)[C@H](Cc2c[nH]c3ccccc23)NC(=O)[C@@H](CCCNC(=N)N)NC(=O)[C@H](CC(N)=O)NC1=O [Compound 13c] (cyclo(IN[dR]WL[dL]))
6. CC(C)C[C@H]1NC(=O)[C@H](CC(C)C)N(C)C(=O)[C@H](Cc2c[nH]c3ccccc23)NC(=O)[C@@H](CCCN)NC(=O)[C@H](CC(N)=O)N(C)C(=O)[C@H](C(C)C)NC1=O [Compound 23c] (cyclo([NMeL][dL]V[NMeN][dOrn]W))

Reply |
12.57
14.90
6.85
13.82
16.38
14.63
